test system: NCI-H226 lung; assay: NCI-60 one-dose screen, 48 h (100 = growth as untreated, 0 = no growth, -100 = all killed); conditions: 10 µM unless noted
The panel holds about 83,000 compounds, 20% with a hit somewhere; the sample as a whole holds those more often.
quantity.measured: growth (%)
Enter your answer as a number in %; do not include the unit.

Some solved entries appear below for comparison.
CC(C)[C@@H]1CC[C@@H]2[C@@H]1[C@H](OC(=O)/C=C/c1ccccc1)[C@]1(C(C)C)C[C@@H](OC(=O)CO)[C@@]2(C)O1; 63.2
CC(C)(C)c1ccc(Cn2cc(CSc3nc4ccccc4s3)nn2)cc1; 83
O=C1C=CC2(NN=C(c3ccccc3)N2c2cccc(Cl)c2)C(Cl)=C1 (centres undefined); 86.5

Consider the compound COCCN1CCN(Cc2ccc(-c3n[nH]c4c3C(=O)c3c(NC(=O)NN5CCOCC5)cccc3-4)cc2)CC1 and give its measured growth. 6.04

---

test system: CAKI-1 renal; test: NCI-60 one-dose screen, 48 h (100 = growth as untreated, 0 = no growth, -100 = all killed); conditions: 10 µM unless noted
This is part of a sample that, as a whole, favours compounds with a hit. Of some 83,000 tested, about 20% had one in any assay.
quantity.measured: growth (%)
Numeric answer only, unit % assumed.

Previously resolved entries follow.
Cn1c(Nc2ccc(C(F)(F)F)cc2)nc2cc(Oc3ccnc(-c4ncc(C(F)(F)F)[nH]4)c3)ccc21; 34.7
COc1cc(F)c(F)c(Nc2ccc(I)cc2F)c1NS(=O)(=O)C1(C[C@H](O)CO)CC1; 30.5
Clc1nc(Cl)c2ncn(CC#CCn3cnc4c(Cl)nc(Cl)nc43)c2n1; -96.5
O=C(Cc1ccc(/C=C/C(=O)c2ncc[nH]2)cc1)Nc1ccc(Br)cc1; 32.5
c1cn2cc(-c3ccc4cn[nH]c4c3)nc(Nc3ccc(N4CCOCC4)cc3)c2n1; 39.4

Dear colleague, I am looking for the recorded growth of the following molecule: COc1cc(Nc2ncc3c(n2)-c2ccc(Cl)cc2C(c2c(F)cccc2OC)=NC3)ccc1C(=O)O 68.2

Further, for CCN1CCN(Cc2ccc(NC(=O)Nc3nc(-c4cc(OC)c(OC)c(OC)c4)cs3)cc2C(F)(F)F)CC1 ? 55.2

Same question for CCNC(=O)C#Cc1ccc2c(C(=Nc3ccc(CN(C)C)cc3)c3ccccc3)c(O)[nH]c2c1 please. 32.7

Next molecule up: CC1(O)CCC(Nc2cc(-c3ccc(C(F)(F)F)cc3)c(C#N)c3nc4ccccc4n23)CC1 (configuration not stated) 54.6

Another: C=C1C(=O)O[C@H]2[C@H]1CC/C(Cn1cc(-c3cc(C)c(C)cc3C)nn1)=C\CC[C@@]1(C)O[C@@H]21 -93.7

What do we get for C=CCC(=O)N[C@H](/C=C/C(=O)O)Cc1ccc(-c2cc(Cl)cc(Cl)c2)cc1 ? 86.3

Further, for Cc1nc2cc(-c3nn(C(C)C)c4ncnc(N)c34)ccc2o1 ? -36.7

Now try CC/C=C\C[C@H]1C/C=C2/C(=O)C=C[C@@H]2C/C=C\CCCC(=O)O1 . -35.8

What about CSc1nc2ncncc2[nH]1 ? 621

Thanks! And NC(=O)N1N=C(c2ccc(Cl)cc2)CC1c1cn(-c2ccccc2)nc1-c1ccc(Cl)cc1 (configuration not stated) ? 67.7

Please answer likewise for O=C1OCC2=C1C(c1cccc(F)c1)c1cc3c(cc1N2CCO)OCCO3 (configuration not stated) 31.8

Can you handle O=C1CSC(c2c(F)cccc2Cl)N1NC(=O)C(O)(c1ccccc1)c1ccccc1 (configuration not stated) next? 93.3

Also, Cn1ncc(Cl)c1-c1cc(C(=O)N[C@H](CN)Cc2ccc(F)c(F)c2)oc1Cl please. -34.2

Further, for N#CCNC(=O)c1ccc(-c2ccnc(Nc3ccc(N4CCOCC4)cc3)n2)cc1 ? -5.7
